Test: Lipophilicity test, partition coefficient by shake-flask method
Format: physicochemical
Conditions: n-octanol / phosphate buffer pH 7.4, shake-flask, HPLC
Experimental Endpoint: logD

OC[C@@H]1CC[C@H](n2cnc3c(O)ncnc32)O1: -1.22

Here is the next item to consider.
Which value of logD has been reported for Nc1nc2c(ncn2[C@H]2CC[C@@H](CO)O2)c(=O)[nH]1 in the records?
-1.06

Values from patent US5580860A
